- System: SNB-19
- Experiment notes: NCI tumour cell line growth inhibition, 48 h
Calls of active or inactive are those of the source. Cut-off read from the data, not from the text of the source: active = GI50 up to about 1.1 µM and inactive = higher.
Result type: GI50

Ask: Answer with the recorded GI50 for the compound listed here: Cc1cc(S(=O)(=O)Nc2nc(N)nc(N3CCOCC3)n2)c(SCC(=O)O)cc1Cl
Result: > 10 µM (inactive)

Ask: Supply GI50 value. Item: COc1cc(Nc2cnc3cc(F)c(F)cc3n2)cc(OC)c1
Result: 26.2 µM (inactive)

Ask: Note GI50 for the compound shown: CC(=O)OC1[C@H]2c3cc4c(cc3CN3CCC(=C[C@@H]1O)C23)OCO4 (some centres not stated)
Result: 56.8 µM (inactive)

Ask: Write down GI50 measured for item NS(=O)(=O)c1cccc(NC(=S)NC(=O)Nc2ccc(Cl)c(Cl)c2)c1
Result: 21.2 µM (inactive)

Ask: Provide measured GI50 value, entry: COc1cc2c(cc1OC)[C@@H](Nc1ccc(C#N)cc1)C1COC(=O)[C@@H]1C2c1cc(OC)c(O)c(OC)c1 (some centres not stated)
Result: 0.344 µM (active)

Ask: Note GI50 for the compound shown: c1ccc(C2C3=C(Nc4ncnn42)c2ccccc2C3)cc1 (configuration not stated)
Result: 14.9 µM (inactive)

Ask: Return reported GI50. Input compound: O=C1C(Br)=C(Br)C(=O)c2c(O)ccc(O)c21
Result: 18.3 µM (inactive)

Ask: Annotate the compound C=C1CC(c2ccc(O)c(OC)c2)Oc2c(OC)cccc21 (configuration not stated) with its measured GI50.
Result: 44.9 µM (inactive)

Ask: Identify measured GI50 associated with Cc1cc2c(C)nn(Cc3ccccc3)c2c(C(=O)O)c1C
Result: > 100 µM (inactive)

Ask: For O=C(Nc1ccc(Cl)cc1C(=O)O)c1ccc([N+](=O)[O-])cc1 , write its GI50.
Result: 14.5 µM (inactive)

Ask: Complete the entry with GI50 for COc1cc(C2c3cc4c(cc3OC(NCCc3ccccc3)C2C)OCO4)cc(OC)c1OC (configuration not stated)
Result: 0.455 µM (active)

Ask: Quickly give me recorded GI50 for O=c1cccccc1O
Result: > 100 µM (inactive)

Ask: Return GI50 (reported value) for this compound: CC1=C2[C@@H](c3ccccc3)C3C=CC2(C=C3C(F)(F)F)N(C(=O)NC2CCCCC2)C1=O (some centres not stated)
Result: > 100 µM (inactive)

Ask: Using the record for O=C(/C=C/c1c(O)ccc2ccccc12)c1ccccc1 , state its measured GI50.
Result: > 100 µM (inactive)

Ask: # return recorded GI50 for input N#Cc1ccnc(C(=O)N2CCCC2C(=O)O)c1 (configuration not stated)
Result: > 100 µM (inactive)

Ask: Give the reported value of GI50 for this record: O=CC1C(Cl)=Nc2nc3ccccc3n2C1c1ccc([N+](=O)[O-])cc1 (configuration not stated)
Result: 16 µM (inactive)

Ask: Find the measured GI50 of Cc1cc(C)nc(NC(=S)Nc2ccccc2Cl)c1 and report it.
Result: > 100 µM (inactive)

Ask: Find the measured GI50 of CSC(=S)NN=C1CCCC1.CSC(=S)NN=C1CCCC1.[Zn+2] and report it.
Result: 40.9 µM (inactive)

Ask: Tell me its GI50 given CCOC(=O)c1ccc(-c2cccs2)[nH]1 as the entry.
Result: 98.2 µM (inactive)

Ask: Identify measured GI50 corresponding to O=C(/C=C/c1ccccc1)c1ccc(Cl)cc1Cl
Result: 27.5 µM (inactive)

Ask: // fetch GI50 given entry CC(=O)/N=C1\NC(=O)/C(=C/c2ccc(Cl)cc2Cl)N1C
Result: 47.6 µM (inactive)

Ask: Provide measured GI50 value, entry: COC(=O)C(NC(=O)CNC(=O)CSc1nnc(COc2ccc(Cl)cc2)n1-c1ccccc1)C(C)C (configuration not stated)
Result: 20.3 µM (inactive)
